Value source: paper PMC3839042

test target: human S100A2 (human, UniProt P29034 1-98)
Sequence (P29034 whole entry, one chain of several): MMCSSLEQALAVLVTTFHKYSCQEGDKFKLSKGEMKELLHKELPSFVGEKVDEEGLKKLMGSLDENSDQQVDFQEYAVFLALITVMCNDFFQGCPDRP
protocol description: ITC
recorded metric: Kd (µM)

Example entries and their recorded answers appear below.
Ac-TRTKIAWNKILS-NH2 [TRTKM6 (Ac-TRTKIAWNKILS-NH2)]: 21.5
Ac-TRTKIDWNAILS-NH2 [TRTKM9 (Ac-TRTKIDWNAILS-NH2)]: 45
Ac-ARTKIDWNKILS-NH2 [TRTKM1 (Ac-ARTKIDWNKILS-NH2)]: 15.2

[I] Ac-TRTKIDWNKIAS-NH2 [TRTKM11 (Ac-TRTKIDWNKIAS-NH2)]
[II] Ac-TRTKADWNKILS-NH2 [TRTKM5 (Ac-TRTKADWNKILS-NH2)]
Query block: Higher Kd: I or II ? To answer, give the label that identifies your chosen option.
Result block: I
